target: human recombinant Yes [a.a. 2–543 (end)] (Homo sapiens, UniProt P07947); construct: human recombinant Yes [a.a; 2–543 (end)]; purchased BPS Bioscience 40488; assay: ADP-Glo kinase assay, inhibition rates of Yes phosphorylation activity (first and second screening); assay type: biochemical; conditions: first screening; mean of n = 4 wells; 10 μmol L−1 compound
Sequence (P07947 2-543): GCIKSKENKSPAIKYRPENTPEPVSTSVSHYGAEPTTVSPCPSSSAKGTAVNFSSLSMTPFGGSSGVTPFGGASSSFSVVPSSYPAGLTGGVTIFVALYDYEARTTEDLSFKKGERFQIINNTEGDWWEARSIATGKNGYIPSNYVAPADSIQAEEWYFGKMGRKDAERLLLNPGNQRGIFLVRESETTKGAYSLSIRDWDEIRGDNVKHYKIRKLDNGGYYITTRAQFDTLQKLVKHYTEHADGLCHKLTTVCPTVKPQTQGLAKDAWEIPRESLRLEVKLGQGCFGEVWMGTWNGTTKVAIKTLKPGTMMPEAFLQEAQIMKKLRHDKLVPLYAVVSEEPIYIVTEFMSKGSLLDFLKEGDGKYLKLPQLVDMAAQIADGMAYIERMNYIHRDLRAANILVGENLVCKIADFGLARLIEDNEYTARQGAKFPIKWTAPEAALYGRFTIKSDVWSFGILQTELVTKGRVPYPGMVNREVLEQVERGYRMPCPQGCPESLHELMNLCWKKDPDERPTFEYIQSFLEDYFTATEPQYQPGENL
MEASUREMENT KIND: First screening IR (inhibition rate) (%)
Kindly provide the numeric value in % only, without the unit symbol.

Input line: Which First screening IR (inhibition rate) reading was recorded for the compound CCC(C)(C)C1C/C(=C\c2c(Cl)cccc2Cl)c2nc3ccccc3c(C(=O)O)c2C1 (centres unmarked) [Compound Z46116634] ?
Output line: 45

Input line: Which First screening IR (inhibition rate) reading was recorded for the compound CC(C)S(=O)(=O)CCS(=O)(=O)CC1CCCCC1 [Compound Z1347351162] ?
Output line: -3

Input line: Which First screening IR (inhibition rate) reading was recorded for the compound O=S1(=O)CCN(S(=O)(=O)Cl)CC1 [Compound Z432047124] ?
Output line: 0

Input line: Which First screening IR (inhibition rate) reading was recorded for the compound Cc1ccc(Nc2ccnc(Nc3ccc(C)cc3)n2)cc1 [Compound Z118512882] ?
Output line: -5

Input line: Which First screening IR (inhibition rate) reading was recorded for the compound CC(C)Oc1cc(CN(c2ncnc3c2cnn3C)C2CC2)ccn1 [Compound Z1739489055] ?
Output line: 3

* * *

Measured First screening IR (inhibition rate) by item
Target: human recombinant Yes [a.a. 2–543 (end)] (Homo sapiens, UniProt P07947)
Construct: human recombinant Yes [a.a; 2–543 (end)]; purchased BPS Bioscience 40488
Assay: ADP-Glo kinase assay, inhibition rates of Yes phosphorylation activity (first and second screening)
Type: biochemical
Settings: first screening; mean of n = 4 wells; 10 μmol L−1 compound
Protocol: All inhibitory assays of the phosphorylation activity of Yes were performed in accordance with the Promega Technical Manual for the ADP-Glo™ Kinase Assay (Fitchburg, WI, USA. Catalog number: V9102). The human recombinant Yes [a.a. […] The screening was conducted in three steps consisting of the first screening, the second screening, and the IC50 determination, as can be illustrated in Fig. 1b. First, we determined the inhibition rates of the 1,991 compounds. […]
Kindly provide the numeric value in % only, without the unit symbol.

MOLECULE	UNITS OF MEASURE	First screening IR (inhibition rate)
CN(C1CCS(=O)(=O)C1)S(=O)(=O)c1ccc(F)cc1 (centres unmarked)	%	-5
O=C1COc2ccc(C(=O)/C=C/c3ccc(OC(F)F)cc3)cc2N1	%	3
CCc1cccc(OCC(=O)C(C#N)c2nc3ccccc3[nH]2)c1 (centres unmarked)	%	2
O=C(/C=C/c1cc2ccccc2nc1N1CCOCC1)c1ccc(S(=O)(=O)N2CCCC2)cc1	%	1

Input line: Which First screening IR (inhibition rate) reading was recorded for the molecule `Cc1csc(CNC(=O)c2cc(-c3ccccc3)nc3c2cnn3C(C)C)n1` ?
Output line: 1

Input line: Which First screening IR (inhibition rate) reading was recorded for the molecule Cc1ncc(C(=O)NC(C)c2cccc(NC(=O)c3ccccc3)c2)[nH]1 (centres unmarked) ?
Output line: -17

Input line: Which First screening IR (inhibition rate) reading was recorded for the molecule `O=C(CCCC1CCCCC1)Nc1ccc(-c2cnc[nH]2)cc1` ?
Output line: 0

Input line: Which First screening IR (inhibition rate) reading was recorded for the molecule `O=C(CCc1ccsc1)Nc1cc(C(F)(F)F)c[nH]c1=O` ?
Output line: 4

* * *

biological target: human recombinant Yes [a.a. 2–543 (end)] (Homo sapiens, UniProt P07947); construct: human recombinant Yes [a.a; 2–543 (end)]; purchased BPS Bioscience 40488; test: ADP-Glo kinase assay, inhibition rates of Yes phosphorylation activity (first and second screening); type: biochemical; details: first screening; mean of n = 4 wells; 10 μmol L−1 compound
Param threshold (-20%) applies to First screening IR (inhibition rate); output TRUE when value >= threshold, FALSE when value < threshold.

MOLECULE	EXPERIMENTAL TARGET	CLASS LABEL
CC1CCN(c2ccc([N+](=O)[O-])cc2C(=O)N2CCN(Cc3cn4cc(Cl)ccc4n3)CC2)CC1 [Compound Z901305410]	human recombinant Yes [a.a. 2–543 (end)] (Homo sapiens, UniProt P07947)	TRUE
Cc1c(-c2ccc(O)cc2)nc2ccc(Cl)cc2c1-c1ccccc1.Cl [Compound Z48950829]	human recombinant Yes [a.a. 2–543 (end)] (Homo sapiens, UniProt P07947)	TRUE
O=C(COc1ccccc1F)NCc1ccc2[nH]c(=O)[nH]c2c1 [Compound Z1654002148]	human recombinant Yes [a.a. 2–543 (end)] (Homo sapiens, UniProt P07947)	TRUE
O=C(NCc1ccco1)c1cc(-c2cccnc2)nc2c1cnn2Cc1ccccc1Cl [Compound Z234860216]	human recombinant Yes [a.a. 2–543 (end)] (Homo sapiens, UniProt P07947)	TRUE
Clc1ccc2nc(NC3=NCN(CCN4CCOCC4)CN3)nc(-c3ccccc3)c2c1 [Compound Z57440306]	human recombinant Yes [a.a. 2–543 (end)] (Homo sapiens, UniProt P07947)	TRUE

Input line: Exam item: decide whether the reported First screening IR (inhibition rate) for O=[N+]([O-])c1ccc(N2CCC(C(O)c3ncc[nH]3)CC2)nc1-c1ccccc1 (centres unmarked) [Compound Z1823608663] is at least -20%.
Output line: FALSE

Input line: Exam item: decide whether the reported First screening IR (inhibition rate) for O=C(CN(Cc1ccccc1)S(=O)(=O)c1ccc(Cl)cc1)N1CCN(c2ccccn2)CC1 [Compound Z26735553] is at least -20%.
Output line: TRUE

Input line: Exam item: decide whether the reported First screening IR (inhibition rate) for CCn1ncc2c(C(=O)O)cc(-c3ccccc3)nc21 [Compound Z56648330] is at least -20%.
Output line: FALSE

* * *

Measured First screening IR (inhibition rate) by item
molecular target: human recombinant Yes [a.a. 2–543 (end)] (Homo sapiens, UniProt P07947); construct: human recombinant Yes [a.a; 2–543 (end)]; purchased BPS Bioscience 40488; test: ADP-Glo kinase assay, inhibition rates of Yes phosphorylation activity (first and second screening); type: biochemical; details: first screening; mean of n = 4 wells; 10 μmol L−1 compound
Kindly provide the numeric value in % only, without the unit symbol.

The following compounds have reported results that may help.
COMPOUND	First screening IR (inhibition rate) [%]
COCCNC(=O)/C(=C\c1ccc(-c2cccc(Cl)c2)o1)NC(=O)c1ccc(OC)cc1	46
Cc1nc(N(C)C(C)c2ccc([S+](C)[O-])cc2)c2cnn(C)c2n1 (centres unmarked)	9
CC(C)C(=O)N1CCC(Nc2ncnc3c2cnn3CCC#N)CC1	-8

Input line: Which First screening IR (inhibition rate) reading was recorded for the compound `NC(=O)c1ccc(C(=O)N2CCN(c3ccccn3)CC2)cc1` ?
Output line: 0

Input line: Which First screening IR (inhibition rate) reading was recorded for the compound CC1CCN(c2ccc(NC(C)C(=O)Nc3cccc([N+](=O)[O-])c3)cc2)CC1 (centres unmarked) ?
Output line: 26

* * *

target: human recombinant Yes [a.a. 2–543 (end)] (Homo sapiens); construct: human recombinant Yes [a.a; 2–543 (end)]; purchased BPS Bioscience 40488; assay: ADP-Glo kinase assay, inhibition rates of Yes phosphorylation activity (first and second screening); assay type: biochemical; conditions: first screening; mean of n = 4 wells; 10 μmol L−1 compound
MEASUREMENT KIND: First screening IR (inhibition rate) (%)
Kindly provide the numeric value in % only, without the unit symbol.

COMPOUND	First screening IR (inhibition rate) [%]
O=C(CCc1c[nH]c2ccccc12)Nc1ccc(F)c([N+](=O)[O-])c1 [Compound Z32407809]	4

Input line: Which First screening IR (inhibition rate) reading was recorded for the compound COC(=O)c1cc(-c2ccc(OC)cc2)nc2c1c(C)nn2CCC#N [Compound Z328815354] ?
Output line: 24

Input line: Which First screening IR (inhibition rate) reading was recorded for the compound O=C(Nc1ccc(N2CCOCC2)cc1N1CCOCC1)c1ccc(N2C(=O)CCC2=O)cc1 [Compound Z28028679] ?
Output line: -4

Input line: Which First screening IR (inhibition rate) reading was recorded for the compound O=C1Cc2cc(Nc3nccc(C(F)(F)F)n3)ccc2N1 [Compound Z1199266078] ?
Output line: 13

Input line: Which First screening IR (inhibition rate) reading was recorded for the compound Clc1ccccc1Cn1ncc2c(NCCc3ccccc3)ncnc21 [Compound Z1172235413] ?
Output line: 4

* * *

biological target: human recombinant Yes [a.a. 2–543 (end)] (Homo sapiens, UniProt P07947); construct: human recombinant Yes [a.a; 2–543 (end)]; purchased BPS Bioscience 40488; assay: ADP-Glo kinase assay, inhibition rates of Yes phosphorylation activity (first and second screening); assay type: biochemical; conditions: first screening; mean of n = 4 wells; 10 μmol L−1 compound
MEASUREMENT KIND: First screening IR (inhibition rate) (%)
Kindly provide the numeric value in % only, without the unit symbol.

The following molecules have reported results that may help.
MOLECULE	First screening IR (inhibition rate) / %
CC(C)c1cccc(NC(=O)CN(C)CC(=O)N2c3ccccc3NC(=O)CC2C)c1 (stereo not shown) [Compound Z203963094]	-10
CCN(c1ccccc1)S(=O)(=O)c1ccc(C(=O)Nc2ccc(S(=O)(=O)N(C)C)cc2)cc1 [Compound Z29267150]	2
Fc1ccc(/C=C2/CCCc3c2nc2ncnn2c3-c2ccc(F)cc2)cc1 [Compound Z56784264]	8

--- query ---
Input line: Record lookup: for human recombinant Yes [a.a. 2–543 (end)] (Homo sapiens, UniProt P07947), what First screening IR (inhibition rate) belongs to CSc1ccc(CSCc2nc(N)nc(Nc3ccc(F)cc3)n2)cc1 [Compound Z135100070] ?
Output line: -6
